Ref: PubChem BioAssay (NCI)

Please provide measured TGI for the entries that follow.
System: HOP-62 NSCLC
assay_procedure: NCI tumour cell line growth inhibition, 48 h
Where a SMILES comes first, the peptide text is derived from it.

Illustrative cases are given below, each with its answer.
INSERT INTO assay_data (compound, result) VALUES
  ('CCCCNC(=O)Oc1ccc(/C(=C(/C)Cc2ccc(OC)cc2)c2ccc(OCCN3CCCC3)cc2)cc1', '11.3 µM'),
  ('CCCCCCCCCCCCCCCC(=O)OCC1OC(OC)C2NP(=O)(N(CCCl)CCCl)OC1C2O (centres undefined)', '10.8 µM'),
  ('CCOC(=O)C1=C(C)N(NC(N)=O)C(C)(O)C12CCOC2=O (centres undefined)', '> 100 µM'),
  ('O=C(O)C1(Cc2ccc3c(c2)CCC3)Cc2ccccc2C1', '> 100 µM'),
  ('CC1(C)C=N[N+]2(C)C3C=CC(CC3)C12 (centres undefined)', '> 100 µM'),
  ('COC(=O)/C=C1/SC(N2N=C(c3cccs3)CC2c2ccc(F)cc2)=NC1=O (centres undefined)', '4.29 µM'),
  ('O=[N+]([O-])c1cc(Cl)ccc1OCc1ccccc1', '> 100 µM'),
  ('O=c1c(Br)cc2c(-c3ccccc3)c3cc(Br)c(O)c(Br)c3oc-2c1Br', '> 100 µM');

List TGI for every entry below, keeping the order given.
1. CN(C)c1ccc(-c2ccc(N(C)C)c3n[se]nc23)c2n[se]nc12
2. CC(C)(C)OC(=O)c1ccc(NCC2=CC(=O)C=CC2=O)cc1
3. CCOC(=N)CC(=O)Nc1cccc(Cl)c1
4. Fc1cccc(Cl)c1C1SCc2nc3cc4ccccc4cc3n21 (centres undefined)
5. COc1cc2ncnc(Nc3ccc4c(cnn4Cc4ccccc4)c3)c2cc1OC
6. CCC(C)C1NC(=O)C2CCCN2C(=O)CNC(=O)C(C)NC(=O)C(Cc2ccccc2)NC(=O)C(C(C)C)NC1=O (centres undefined) (cyclo(GPIVFA); configuration not given here)

Response:
1: > 100 µM; 2: > 61.8 µM; 3: > 100 µM; 4: > 100 µM; 5: > 25 µM; 6: > 100 µM
